Can you tell me hAMY3R EC50 (cAMP) for the items I'm about to list?
Molecular target: T1, hAMY3R (human, UniProt P30988)
T1 sequence 1: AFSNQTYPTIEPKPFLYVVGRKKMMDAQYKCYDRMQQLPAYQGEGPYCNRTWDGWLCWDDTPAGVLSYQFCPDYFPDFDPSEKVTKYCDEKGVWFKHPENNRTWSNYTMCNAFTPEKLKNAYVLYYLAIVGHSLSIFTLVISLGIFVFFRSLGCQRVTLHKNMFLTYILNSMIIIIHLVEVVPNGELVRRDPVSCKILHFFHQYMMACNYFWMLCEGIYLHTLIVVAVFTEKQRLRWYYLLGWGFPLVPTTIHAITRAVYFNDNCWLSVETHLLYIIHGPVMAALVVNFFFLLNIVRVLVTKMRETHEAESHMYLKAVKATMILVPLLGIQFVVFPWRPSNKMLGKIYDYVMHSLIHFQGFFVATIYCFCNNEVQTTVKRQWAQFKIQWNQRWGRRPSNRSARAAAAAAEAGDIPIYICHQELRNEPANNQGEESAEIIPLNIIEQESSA
T1 sequence 2: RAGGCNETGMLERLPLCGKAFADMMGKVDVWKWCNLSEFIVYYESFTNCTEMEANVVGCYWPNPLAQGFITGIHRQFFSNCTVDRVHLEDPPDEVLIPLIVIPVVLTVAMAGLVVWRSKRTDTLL
Test: cell-based or functional assay
Numbered stars: 1 amine (or outer) side, 2 acyl side, 3 side chain; on linkers, the order of the positions; unused ones are H or OH. Bridge positions count the residues as written; N and C are the ends. Square brackets hold non-standard residues; d marks the D form. Ends that are not written are not given here. * marks the point of attachment. C20 diacid = O=C(O)CCCCCCCCCCCCCCCCCCC(=O)*; γGlu = O=C(O)[C@H](CCC(=O)[*:2])N[*:1]; Hyp = O=C(O)[C@@H]1C[C@@H](O)CN1; Cit = NC(=O)NCCC[C@H](N)C(=O)O
Answer in pM, number only, no unit symbol.

Form field: reported hAMY3R EC50 (cAMP) of GCRTGTCTVQ[Cit]LAHQIYQFTDKDKDNVAPRSNIGPQG[Hyp]-NH2 (disulfide 2-7 (inferred); ends not checked) [SEQ ID NO: 303] 103

Fill in the blank: the reported hAMY3R EC50 (cAMP) of KCNTATCTVQ[Cit]LAEQIYQFTDKDKDNVSPPTNVGSNG[Hyp]-NH2 (disulfide 2-7 (inferred); ends not checked) [SEQ ID NO: 266] is ____. 53

GET /values?readout=hAMY3R EC50 (cAMP)&item= {C20 diacid-γGlu}-RCNTATCTVQRLAHQIYQFTDKDKDNVAPPTNVGSNG[Hyp]-NH2 (disulfide 2-7 (inferred); ends not checked) [SEQ ID NO: 39] 10

Param item = GCRTGTCTVQRLAHQIYQFTDKDKDNVAPRTKIGPNG[Hyp]-NH2 (disulfide 2-7 (inferred); ends not checked) [SEQ ID NO: 115] ; retrieve measured hAMY3R EC50 (cAMP). 23
